target: human Nav1.8 (Homo sapiens); construct: expressed in transfected cells; test: Qube® automated patch-clamp assay, Nav1.8; type: cell-based; conditions: human Nav1.8 stably expressed in HEK 293 cells; whole-cell voltage clamp, room temperature; read-out: IC50 values (nM) for Examples in the Nav1.8 Qube® Assay
Sequence (Q9Y5Y9 whole entry): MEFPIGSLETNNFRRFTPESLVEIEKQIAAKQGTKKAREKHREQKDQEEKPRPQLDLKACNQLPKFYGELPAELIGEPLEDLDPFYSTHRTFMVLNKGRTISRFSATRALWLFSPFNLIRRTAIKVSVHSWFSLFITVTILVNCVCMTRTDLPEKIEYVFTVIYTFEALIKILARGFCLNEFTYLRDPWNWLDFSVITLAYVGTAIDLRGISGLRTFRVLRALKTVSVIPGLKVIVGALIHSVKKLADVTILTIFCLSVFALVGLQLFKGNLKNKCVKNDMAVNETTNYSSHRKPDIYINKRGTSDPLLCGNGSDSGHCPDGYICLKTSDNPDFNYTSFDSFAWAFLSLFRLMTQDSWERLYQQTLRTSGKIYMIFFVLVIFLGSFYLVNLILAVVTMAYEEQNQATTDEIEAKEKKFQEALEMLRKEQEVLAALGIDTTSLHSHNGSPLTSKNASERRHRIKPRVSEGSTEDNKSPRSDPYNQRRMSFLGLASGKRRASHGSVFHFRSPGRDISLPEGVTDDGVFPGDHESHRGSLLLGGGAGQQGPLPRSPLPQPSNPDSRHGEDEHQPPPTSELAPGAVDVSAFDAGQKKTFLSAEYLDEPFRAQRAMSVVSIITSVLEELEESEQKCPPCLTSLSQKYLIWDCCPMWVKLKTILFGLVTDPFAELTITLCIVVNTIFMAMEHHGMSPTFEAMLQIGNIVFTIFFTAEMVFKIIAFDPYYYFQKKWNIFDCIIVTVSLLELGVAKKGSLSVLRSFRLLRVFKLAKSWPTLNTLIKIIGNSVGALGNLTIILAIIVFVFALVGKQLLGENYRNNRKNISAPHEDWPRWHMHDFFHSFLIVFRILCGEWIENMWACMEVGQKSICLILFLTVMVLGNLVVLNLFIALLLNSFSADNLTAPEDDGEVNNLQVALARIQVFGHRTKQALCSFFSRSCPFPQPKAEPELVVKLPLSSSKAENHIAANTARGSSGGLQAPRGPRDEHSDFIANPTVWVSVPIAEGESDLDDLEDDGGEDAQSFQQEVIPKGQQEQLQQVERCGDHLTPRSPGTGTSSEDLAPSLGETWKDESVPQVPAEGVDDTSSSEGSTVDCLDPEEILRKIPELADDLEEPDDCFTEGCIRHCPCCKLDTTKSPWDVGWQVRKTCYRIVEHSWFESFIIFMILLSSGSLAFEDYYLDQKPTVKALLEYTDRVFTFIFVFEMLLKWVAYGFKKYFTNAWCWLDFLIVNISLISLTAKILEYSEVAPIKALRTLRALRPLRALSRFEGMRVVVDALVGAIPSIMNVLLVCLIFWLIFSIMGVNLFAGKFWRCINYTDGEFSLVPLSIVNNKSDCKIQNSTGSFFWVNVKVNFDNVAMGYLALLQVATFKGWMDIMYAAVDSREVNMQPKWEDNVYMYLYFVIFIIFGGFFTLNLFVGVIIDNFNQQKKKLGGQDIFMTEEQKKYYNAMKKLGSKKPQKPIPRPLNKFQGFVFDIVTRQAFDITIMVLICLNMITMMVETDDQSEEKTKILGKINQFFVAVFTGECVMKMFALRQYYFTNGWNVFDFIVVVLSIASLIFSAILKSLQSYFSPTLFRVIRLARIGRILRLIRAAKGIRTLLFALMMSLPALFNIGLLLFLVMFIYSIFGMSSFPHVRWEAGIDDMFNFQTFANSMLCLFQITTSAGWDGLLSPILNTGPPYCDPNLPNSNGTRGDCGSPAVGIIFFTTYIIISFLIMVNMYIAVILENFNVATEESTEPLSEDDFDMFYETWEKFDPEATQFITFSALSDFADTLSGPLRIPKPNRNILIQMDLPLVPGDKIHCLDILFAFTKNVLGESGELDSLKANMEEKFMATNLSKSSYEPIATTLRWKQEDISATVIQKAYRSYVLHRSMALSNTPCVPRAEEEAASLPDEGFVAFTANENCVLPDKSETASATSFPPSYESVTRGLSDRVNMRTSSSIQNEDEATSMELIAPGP
Assign a class from recorded IC50; defined classes: band 1 (below 10 nM), band 2 (10 nM to below 90 nM), band 3 (90 nM or more)

Lab log: O=C1C[C@H](C(=O)NC(c2ccc(Cl)cc2)c2ccc(F)c(Cl)c2)CN1 (single isomer, unassigned) [Example 1A] — assign IC50 category band 1

Pick a category. Item: O=C1C[C@H](C(=O)NC(c2ccc(Cl)cc2)c2ccc(C3CC3)cc2)CN1 (stereo partly drawn) [Example 3] band 3

Kindly state the category for this compound: O=C1C[C@H](C(=O)NC(c2ccc(F)c(Cl)c2)c2ccc(F)c(Cl)c2)CN1 [Example 18] band 1

Note: place this compound into its band. Item: O=C1C[C@H](C(=O)NC(c2cnc(C(F)(F)F)c(Cl)c2)c2ccc(F)c(Cl)c2F)CN1 (single isomer, unassigned) [Example 15] band 1

Quick check: band for N#Cc1cc(C(NC(=O)[C@@H]2CNC(=O)C2)c2ccc(F)c(Cl)c2)ccc1F (stereo partly drawn) [Example 22] band 2

More entries:
Assign a category based on measured IC50 for O=C1C[C@H](C(=O)NC(c2ccc(F)c(Cl)c2)c2ccc(Cl)c(C(F)(F)F)n2)CN1 (single isomer, unassigned) [Example 20B] and give only the class name. band 1

For this compound, which bin applies? CC1C(=O)NCC1C(=O)NC(c1ccc(Cl)cc1)c1ccc(Cl)cc1 (single isomer, unassigned) [Example 27B] band 3

In plain terms, what class is O=C1C[C@H](C(=O)NC(c2cccc(Cl)c2)c2cccc(OC(F)F)c2)CN1 (stereo partly drawn) [Example 6] ? band 3

Category lookup for the compound O=C1C[C@H](C(=O)NC(c2ccc(Cl)cc2)c2cccc(OC(F)(F)F)c2)CN1 (stereo partly drawn) [Example 10] band 2

Just checking, what class would you give O=C1C[C@H](C(=O)NC(c2ccc(Cl)cc2)c2ccc(F)c(C(F)(F)F)c2)CN1 (single isomer, unassigned) [Example 11B] here? band 2

Where would O=C1C[C@H](C(=O)NC(CCc2ccccc2)c2cccc(Cl)c2)CN1 (stereo partly drawn) [Example 26] land among the classes by reported IC50? band 3

State the band of COc1cc(Cl)ccc1C(NC(=O)[C@@H]1CNC(=O)C1)c1ccc(Cl)cc1 (stereo partly drawn) [Example 5] band 2

Sort O=C1C[C@H](C(=O)NC(c2ccc(C(F)(F)F)cc2)c2ccc(C(F)(F)F)cc2)CN1 [Example 9] into one of the categories. band 2

# classify by IC50 band: O=C1C[C@H](C(=O)NC(c2ccc(Cl)cc2)c2ccc(OC(F)(F)F)cc2)CN1 (single isomer, unassigned) [Example 12A] band 2
